system: T1, recombinant human FGF23 (R179Q) (human, UniProt Q9GZV9 25-251)
T1 construct: also called rhFGF23(R179Q); hFGF23(R179Q)
T1 sequence (looked up): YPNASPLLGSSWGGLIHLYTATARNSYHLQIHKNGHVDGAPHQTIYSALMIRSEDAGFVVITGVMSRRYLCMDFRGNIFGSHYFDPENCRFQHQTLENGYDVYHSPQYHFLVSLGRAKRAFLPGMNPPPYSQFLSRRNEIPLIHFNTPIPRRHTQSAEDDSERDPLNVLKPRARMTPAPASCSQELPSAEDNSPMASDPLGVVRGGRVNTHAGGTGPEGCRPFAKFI
assay.protocol: SPR, antibody captured on hIgG chip, rhFGF23(R179Q) analyte
assay.endpoint: kon (M⁻¹ s⁻¹)
Lab book: enter the figure in M⁻¹ s⁻¹, no units written.

Exercise: Recall and state the measured kon for UGX126 (antibody, human IgG1, kappa, V domains shown, also called LC:S52D; S52D) VH: QVQLVQSGAEVKKPGASVKVSCKASGYTFTNHYMHWVRQAPGQGLEWMGIINPISGSTSNAQKFQGRVTMTRDTSTSTVYMELSSLRSEDTAVYYCARDIVDAFDFWGQGTMVTVSS VL: AIQLTQSPSSLSASVGDRVTITCRASQGISSALVWYQQKPGKAPKLLIYDADSLESGVPSRFSGSGSGTDFTLTISSLQPEDFATYYCQQFNDYFTFGPGTKVDIKR .
Key: 1.05e+07

Exercise: Recall and state the measured kon for UGX157 (antibody, human IgG1, kappa, V domains shown, also called HC:I54Y; I54Y) VH: QVQLVQSGAEVKKPGASVKVSCKASGYTFTNHYMHWVRQAPGQGLEWMGIINPYSGSTSNAQKFQGRVTMTRDTSTSTVYMELSSLRSEDTAVYYCARDIVDAFDFWGQGTMVTVSS VL: AIQLTQSPSSLSASVGDRVTITCRASQGISSALVWYQQKPGKAPKLLIYDASSLESGVPSRFSGSGSGTDFTLTISSLQPEDFATYYCQQFNDYFTFGPGTKVDIKR .
Key: 1.49e+07

Exercise: Recall and state the measured kon for UGX148 (antibody, human IgG1, kappa, V domains shown, also called HC:T30F) VH: QVQLVQSGAEVKKPGASVKVSCKASGYTFFNHYMHWVRQAPGQGLEWMGIINPISGSTSNAQKFQGRVTMTRDTSTSTVYMELSSLRSEDTAVYYCARDIVDAFDFWGQGTMVTVSS VL: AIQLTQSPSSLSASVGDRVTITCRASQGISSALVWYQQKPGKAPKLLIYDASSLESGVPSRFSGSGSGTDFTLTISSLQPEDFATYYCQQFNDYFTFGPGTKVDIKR .
Key: 6.65e+06

Exercise: Recall and state the measured kon for UGX135 (antibody, human IgG1, kappa, V domains shown, also called LC:N92D) VH: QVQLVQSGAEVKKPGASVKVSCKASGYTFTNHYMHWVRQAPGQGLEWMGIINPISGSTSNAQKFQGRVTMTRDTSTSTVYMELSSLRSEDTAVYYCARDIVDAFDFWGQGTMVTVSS VL: AIQLTQSPSSLSASVGDRVTITCRASQGISSALVWYQQKPGKAPKLLIYDASSLESGVPSRFSGSGSGTDFTLTISSLQPEDFATYYCQQFDDYFTFGPGTKVDIKR .
Key: 7.71e+06

Exercise: Recall and state the measured kon for UGX127 (antibody, human IgG1, kappa, V domains shown, also called UGX017; LC:S52E) VH: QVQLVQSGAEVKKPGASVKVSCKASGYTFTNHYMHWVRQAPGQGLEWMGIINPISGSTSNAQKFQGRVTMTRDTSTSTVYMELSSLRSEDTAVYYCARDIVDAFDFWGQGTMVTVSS VL: AIQLTQSPSSLSASVGDRVTITCRASQGISSALVWYQQKPGKAPKLLIYDAESLESGVPSRFSGSGSGTDFTLTISSLQPEDFATYYCQQFNDYFTFGPGTKVDIKR .
Key: 6.93e+06
